Cited source: ChEMBL document CHEMBL1123513

Species: Rattus norvegicus
Test name: Compound was tested for oxytocic response in rat
Format: functional
Square brackets hold non-standard residues; d marks the D form. Peptide text beside a SMILES is read from it. * marks the point of attachment. αMeF = C[C@](N)(Cc1ccccc1)C(=O)O; Phe(ol) = N[C@H](CO)Cc1ccccc1; X1 = CC(=O)[C@H](Cc1ccccc1)N*
Measurement name: Activity (%)
Field: numeric (%). Do not append units.

Field: example entries. Status: answers known.
- Compound: "COC(=O)[C@H](Cc1ccccc1)NC(=O)[C@@H]1CCCN1C(=O)[C@H](Cc1c[nH]cn1)NC(=O)[C@@H](NC(=O)[C@H](Cc1ccc(O)cc1)NC(=O)[C@@H](NC(=O)[C@H](CCCN=C(N)N)NC(=O)[C@H](CC(N)=O)NC(C)=O)C(C)C)C(C)C (Ac-NRVYVHPF-OMe)"
  Value unit: "%"
  Activity: 20
- Compound: "CC(=O)N[C@@H](CC(N)=O)C(=O)N[C@@H](CCCN=C(N)N)C(=O)N[C@H](C(=O)N[C@@H](Cc1ccc(O)cc1)C(=O)N[C@H](C(=O)N[C@@H](Cc1c[nH]cn1)C(=O)N1CCC[C@H]1C(=O)N[C@@H](Cc1ccccc1)C(C)=O)C(C)C)C(C)C (Ac-NRVYVHP-X1)"
  Value unit: "%"
  Activity: 0.4
- Compound: "CC(=O)N[C@@H](CC(N)=O)C(=O)N[C@@H](CCCN=C(N)N)C(=O)N[C@H](C(=O)N[C@@H](Cc1ccc(O)cc1)C(=O)N[C@H](C(=O)N[C@@H](Cc1c[nH]cn1)C(=O)N1CCC[C@H]1C(=O)N[C@H](CO)Cc1ccccc1)C(C)C)C(C)C (Ac-NRVYVHP[Phe(ol)])"
  Value unit: "%"
  Activity: 0.09

Dear colleague, I am looking for the recorded Activity of the following compound: COC(=O)[C@](C)(Cc1ccccc1)NC(=O)[C@@H]1CCCN1C(=O)[C@H](Cc1c[nH]cn1)NC(=O)[C@@H](NC(=O)[C@H](Cc1ccc(O)cc1)NC(=O)[C@@H](NC(=O)[C@H](CCCN=C(N)N)NC(=O)[C@H](CC(N)=O)NC(C)=O)C(C)C)C(C)C (Ac-NRVYVHP[αMeF]-OMe)
0.002
